Please provide measured pIC50 for the entries that follow.
# STUDY_TARGET: T1, 6His-Fc-FGFR1c (human, UniProt P11362 141-376)
# T1 construct: not shown: 6His tag and Fc as named in '6His-Fc-FGFR'
# T1 sequence: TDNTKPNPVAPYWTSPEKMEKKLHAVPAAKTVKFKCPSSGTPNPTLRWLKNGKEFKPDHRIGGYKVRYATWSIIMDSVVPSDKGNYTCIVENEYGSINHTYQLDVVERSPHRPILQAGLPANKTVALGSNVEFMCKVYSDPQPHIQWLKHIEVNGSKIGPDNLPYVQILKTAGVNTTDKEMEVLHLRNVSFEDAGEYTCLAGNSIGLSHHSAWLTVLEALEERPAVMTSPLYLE
# ASSAY_SUMMARY: competition ELISA, blocks 6His-Fc-FGFR1c binding to coated FGF2
The read-out pIC50 is expressed as -log10 of concentration in moles per litre.

Record Ab23 (antibody, human IgG2, V domains shown, Format in the assays not spelled out) VH: EVQLLESGGGVVQPGRSLRLSCAASGFTFSSYAMHWVRQAPGKGLEWVAVISYDGSNKYYADSVKGRFTISRDNSKNTLSLQMNSLRVEDTAIYYCVRGAGRGLTYGPDGFDIWGQGTMVTVSS VL: DIVMTQTPLSLSVTPGQPASISCKSSRSLLHSDGKTYVYWYVQKSGQPPQLLIYELSNRFSGVPDRFSGSGSRTDFTLKISRVEAEDVGVYYCMQYIEAPLTFGGGTKVEIK , field pIC50: 8.35

Record summary for Ab82 (antibody, human IgG2, kappa, V domains shown, format in the assays not spelled out) VH: EVQLLESGGGVVQPGRSLRLSCAASGFTFSSYAMHWVRQAPGKGLEWVAVISYDGSNKYYADSVKGRFTISRDNSKNTLSLQMNSLRVEDTAIYYCVRGAGLGFPFGPDGFDIWGQGTMVTVSS VL: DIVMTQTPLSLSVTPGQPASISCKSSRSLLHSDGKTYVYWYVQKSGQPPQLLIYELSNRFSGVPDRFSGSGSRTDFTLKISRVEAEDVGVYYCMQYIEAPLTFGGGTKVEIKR : reported pIC50 = 8.57

The binder listed as Ab32 (antibody, human IgG2, kappa, V domains shown, format in the assays not spelled out) VH: EVQLLESGGGVVQPGRSLRLSCAASGFTFSSYAMHWVRQAPGKGLEWVAVISYDGSNKYYADSVKGRFTISRDNSKNTLSLQMNSLRVEDTAIYYCVRGAGLGFTYGPDGFDIWGQGTMVTVSS VL: DIVMTQTPLSLSVTPGQPASISCTSSRSLLHSDGKTYVYWYVQKSGQPPQLLIYELSNRFSGVPDRFSGSGSRTDFTLKISRVEAEDVGVYYCMQYVEAPLTFGGGTKVEIKR has a reported pIC50 of 8.37
